System under test: HLA-A24.02 (human)
Procedure details: competition with radiolabeled reference peptide, purified MHC I
Protocol conditions: remark: other sources report otherwise
pIC50: −log10 of the molar value.
Readout: pIC50

{"columns": ["Binder", "pIC50"],
 "data": [
  ["MNWRPILTI", 5.16]
]}

(A) TQLARFFPI
(B) CMGGMNWRPI
(C) SMNRRPILTI
(D) WMTETLFDI
Ask: Order the records so the highest pIC50 appears first and the lowest last. Would you mind listing the labels in the order asked for?
Reply: A, D, B, C
